- method.notes: Inhibitory activity against group II Phospholipase A2 (PLA2) from Vipera russelli russelli venom
- Design: species or system Daboia russelii russelii
Parameter: IC50. Scope: all listed entries.
Field: numeric (nM). Do not append units.

Worked examples, 3 molecules total:
C[C@H]1[C@H](C)CC[C@]2(C(=O)O)CC[C@]3(C)C(=CC[C@@H]4[C@@]5(C)CC[C@H](O)C(C)(C)[C@@H]5CC[C@]43C)[C@H]12    2.5
CCCCc1nc(C2=NOC(CC(=O)OC)C2)c(Cl)[nH]1 (stereo not drawn)    209
CCCCc1nc(C2=NOC(CO)C2)c(Cl)[nH]1 (stereo not drawn)    152

Looking up CCCCc1nc(C2=NOC(C(=O)Oc3ccccc3)C2)c(Cl)[nH]1 (stereo not drawn) , I see its IC50 listed as 195

// field: IC50; key: CCCCc1nc(C2=NOC(c3ccccc3)C2)c(Cl)[nH]1 (stereo not drawn) ; value = 142

----------
- method.notes: Inhibitory activity against group II Phospholipase A2 (PLA2) from Vipera russelli russelli venom
- Parameters: species or system Daboia russelii russelii
readout.type: IC50 (nM)
Give just the number in nM; leave the unit off.

Examples from the recorded data:
CCCCc1nc(C2=NOC(C(=O)OCC)C2)c(Cl)[nH]1 (stereo not drawn)    86.2
CCCCc1nc(C2=NOC(C#N)C2)c(Cl)[nH]1 (stereo not drawn)    96.4

Form: molecule = CCCCc1nc(C2=NOC(C(=O)OC)C2)c(Cl)[nH]1 (stereo not drawn) ; IC50 = 250
